Hey, just so you know, these numbers are from the EternaBench riboswitch data.

test system: MS2 coat protein; assay: apparent Kd, MS2 coat protein; higher = weaker binding; RNA-MaP array; FMN 200 µM where present; conditions: designed as: ON switch for flavin mononucleotide; no ligand
MEASURED PROPERTY: apparent Kd (nM)
Answers are plain numbers, in nM.

Solved cases (10 shown):
| SEQ TEXT | NUMBER |
| --- | --- |
| GUAGCAUUAAUAGGAUAUUCAUACCGGAAACGGACAUGAGGAUCACCCAUGUGGCGAAAGCCUUGGGAGAAGGUAAUAUGCUAC | 821 |
| GUUGAAGUCACAGGAUAUACGUCGUCUGUUGCCGUAGAAGGGUGAACUCAGCCUGACCGUGACAUGAGGAUCACCCAUGUGACC | 15.3 |
| GGUACUAUCACAGGAUAUGCUUUCCUUUGGGAAGCAGAAGGGUGUAACAUGAGGAUCACCCAUGUGGUGCCAGGGCGUGGGCCC | 154 |
| ACGUGGAGUCCGCAACAGAACACACAGGAUAUGAGUGGGCACAUGAGGAUCACCCAUGUUACGGAUCAGAAGGGUGUGCUCAUG | 449 |
| AGAAGACAUGAGGAUCACCCAUGUGCACGUGGAGGAGGAUAUGCUAGUAGAAGAUAGAAUGCAGAAGGCCUAAGAA | 88 |
| CGCUGUCAUGCAGGAUAUGCAUUGGAUUACAAUGCAGAAGGGCGAUUACAUGAGGAUCACCCAUGUGUAGACAGUGAAGAAGAG | 415 |
| AUGAUUAUAUUAUACAUGAGGAUCACCCAUGUUAUAAGUCAUGAGGAUAUGGUAUUGUAGUUAUUCCAGAAGGCAUUUAACUUA | 7.02 |
| AUACUCAUGUAAGGAUAUGCAGCCGUUUCGGCUGCAGAAGGUACUAUAAUACAUGAGGAUCACCCAUGUCUCUCGCCUUGCGAG | 710 |
| UUGGACGUCGUAGGAUAUGUAGGAUAUUCCUACAUGAGGAUCACCCAUGUUGACAUGGAAGAAGGACAGAAGGAUGAUGUCCAU | 414 |
| AAUUCAAACAGAGGAUAUUGUUUAUCUCUAUUGCAAGAAGGCUGAUCUUACUACCCACUUAUGAAACAUGAGGAUCACCCAUGU | 34.6 |

I have 2 sequences here; please give me apparent Kd for each one.
1. CUCACGUUAGUAGGAUAUCCGACAUGAGGAUCACCCAUGUCACUACGCCGAUAGGGAAGGUGUAAGGAGAAGGGCUGAUAAAUA
2. ACGCAGCUGGGUAAGGAUAUCGGUGGUAAAACAUGAGGAUCACCCAUGUCCGAAGCUCGGACCUCCGAGAAGGUGCCCGGCUGCG

-- reply
1. 124
2. 8.17

-- ask Which apparent Kd is reported for this sequence? AUCAGUCCGUAGAAGGGUGACAUGAGGAUCACCCAUGUGCCGUGUGCAUUUAUGCCUCCACGGCCACAGGAUAUACGGAGUCGA
-- reply 89

====

system: MS2 coat protein; assay: apparent Kd, MS2 coat protein; higher = weaker binding; RNA-MaP array; FMN 200 µM where present; details: ligand present: flavin mononucleotide; designed as: ON switch for flavin mononucleotide
Label scheme for apparent Kd: lower than 7 nM is not fulfilled, 7 nM and above is fulfilled.

Solved cases below.
| SEQ TEXT | CATEGORY |
| --- | --- |
| CGUAGGAUCCAGAAGGCAUGAACAUGAGGAUCACCCAUGUGAAAACACAUGAGGAUAUGGAUCCUACGAAAAGUGCGAAAGCAC | not fulfilled |
| CUGGUUGUCGUAGGAUAUGUAGGAUAUUCCUACAUGAGGAUCACCCAUGUUCGCAUGGAAGAAAGACAGAAGGACGAUGACCAU | fulfilled |
| AUCAGUCCGUAGAAGGGUGACAUGAGGAUCACCCAUGUGCCGUGUGCAUUUAUGCCUCCACGGCCACAGGAUAUACGGAGUCGA | fulfilled |
| ACAUAAAUUCGAGGAUAUCGGUGAAAUAAUUUACGAGAAGGCGAUAAUAGUUAUAGACUUAUAGACAUGAGGAUCACCCAUGUA | fulfilled |

Continue with the next sequence.
-- ask I'd appreciate it if you could say whether CGUUUAUUUAUUGGAUUAUAUUAUGAGGAUAUCAAUAUUUAUUACAUGAGGAUCACCCAUGUUAAUGAGAAGGCAUAAUUAACG has apparent Kd at least equal to 7 nM.
-- reply not fulfilled
